- assayed.system: T1, insulin-like growth factor II (IGF-II), amino acids 1-67 (human, UniProt P01344 25-91)
- T1 construct: recombinant; also called IGF-II (67aa); IGF2
- T1 sequence (P01344 25-91): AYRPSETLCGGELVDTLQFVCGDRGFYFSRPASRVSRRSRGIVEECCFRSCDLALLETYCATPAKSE
- method.summary: SPR, IgG on Protein G', then ligand, then BP; competitor BP4; 0 = no significant competition, 5 = competes strongly
Can you tell me competition score for the items I'm about to list?
Report the figure in score 0-5 without appending any unit label.

Briefly, competition score measured for M0072-C06 IgG (parental) (antibody, V domains shown) VH: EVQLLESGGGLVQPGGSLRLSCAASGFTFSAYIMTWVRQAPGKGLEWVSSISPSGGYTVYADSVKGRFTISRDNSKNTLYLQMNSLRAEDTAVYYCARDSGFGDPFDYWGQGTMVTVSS VL: DIQMTQSPSSLSASVGDRVTITCRASQSIRNYLNWYQQKPGKAPKLLIYAASKLEDGVPSRFSGSGTGTDFTLTIRSLQPEDFASYFCQQSYSSPGITFGPGTKVEIK : 2

Briefly, competition score measured for M0064-E04 IgG (parental, non-germlined) (antibody, V domains shown) VH: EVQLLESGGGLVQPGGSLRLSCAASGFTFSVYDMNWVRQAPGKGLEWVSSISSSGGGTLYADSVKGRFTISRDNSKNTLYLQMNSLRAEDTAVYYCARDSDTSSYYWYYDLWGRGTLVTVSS VL: DIQMTQSPSSLSASVGDRVTITCQASHDISNYLNWYQQKPGKAPKLLIYAASRLQSGVPSRFSGGGSGTDFSLTISSLQAEDFATYYCQQSYSFPRTFGQGTNLEIK : 5

Briefly, competition score measured for M0063-F02 IgG (parental) (antibody, V domains shown) VH: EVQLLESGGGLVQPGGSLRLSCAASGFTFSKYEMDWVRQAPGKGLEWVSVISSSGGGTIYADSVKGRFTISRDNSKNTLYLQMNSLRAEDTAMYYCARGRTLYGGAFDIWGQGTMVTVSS VL: DIQMTQSPSSLSASVGDRVTITCRASQPINTYLNWYQQRPGKAPRILIYTSSTLQSGVPSRFSGSGSGTDFTLTISSVQPEDFATYYCQQSYSFPLTFGGGTKVEIK : 0

Source listed as patent US20110165145A1.
